Molecular target: T1, TNFR1 (Homo sapiens, UniProt P19438)
T1 chain: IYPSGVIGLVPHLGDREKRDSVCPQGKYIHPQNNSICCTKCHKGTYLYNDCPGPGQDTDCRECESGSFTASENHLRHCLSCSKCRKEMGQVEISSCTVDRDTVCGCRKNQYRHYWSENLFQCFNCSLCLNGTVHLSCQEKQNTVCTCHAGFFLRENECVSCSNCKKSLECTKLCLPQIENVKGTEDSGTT
Test: yeast display SC50
metric_name: apparent Kd (screen)
State the value with its unit after it.

Entry A19N (designed binder) MTLQELLREEALRRAEAENFRYALELLAEKFPEQKEYLLDLAEEIESQIRSLSGVDVEDVRKFLDKEWAWVKELLAEHPAELAEVEAARAARLAELRAEVEAKVAA , apparent Kd (screen) reported as 0.446 nM

Entry E25I (designed binder) MTLQELLREEALRRAEAEAFRYALILLAEKFPEQKEYLLDLAEEIESQIRSLSGVDVEDVRKFLDKEWAWVKELLAEHPAELAEVEAARAARLAELRAEVEAKVAA , apparent Kd (screen) reported as 0.869 nM

Entry L7S (designed binder) MTLQELSREEALRRAEAEAFRYALELLAEKFPEQKEYLLDLAEEIESQIRSLSGVDVEDVRKFLDKEWAWVKELLAEHPAELAEVEAARAARLAELRAEVEAKVAA , apparent Kd (screen) reported as 13.8 nM

Entry W70I (designed binder) MTLQELLREEALRRAEAEAFRYALELLAEKFPEQKEYLLDLAEEIESQIRSLSGVDVEDVRKFLDKEWAIVKELLAEHPAELAEVEAARAARLAELRAEVEAKVAA , apparent Kd (screen) reported as 13.8 nM

Entry E81T (designed binder) MTLQELLREEALRRAEAEAFRYALELLAEKFPEQKEYLLDLAEEIESQIRSLSGVDVEDVRKFLDKEWAWVKELLAEHPATLAEVEAARAARLAELRAEVEAKVAA , apparent Kd (screen) reported as 0.539 nM

Entry R8I (designed binder) MTLQELLIEEALRRAEAEAFRYALELLAEKFPEQKEYLLDLAEEIESQIRSLSGVDVEDVRKFLDKEWAWVKELLAEHPAELAEVEAARAARLAELRAEVEAKVAA , apparent Kd (screen) reported as 0.593 nM

Entry R13C (designed binder) MTLQELLREEALCRAEAEAFRYALELLAEKFPEQKEYLLDLAEEIESQIRSLSGVDVEDVRKFLDKEWAWVKELLAEHPAELAEVEAARAARLAELRAEVEAKVAA , apparent Kd (screen) reported as 0.539 nM
